Numbers sourced from patent US7528138B2.

Reported pKi values, Aurora-2 (Homo sapiens, UniProt O14965).
pKi: −log10 of the molar value.

{"MOLECULE": "CN1CCC(N(C)C(=O)c2cccc(-c3cnc4c(-c5ccccn5)c(N)nn4c3)n2)CC1", "ASSAY_SYSTEM": "Aurora-2 (Homo sapiens, UniProt O14965)", "pKi": "5.30 to 6.30"}
{"MOLECULE": "CCN(CC)CCN(C)C(=O)c1cccc(-c2cnc3c(-c4ccccn4)c(N)nn3c2)n1", "ASSAY_SYSTEM": "Aurora-2 (Homo sapiens, UniProt O14965)", "pKi": "5.30 to 6.30"}
{"MOLECULE": "Nc1nn2cc(-c3ccncc3)cnc2c1-c1cc(N2CCCCC2)ncn1", "ASSAY_SYSTEM": "Aurora-2 (Homo sapiens, UniProt O14965)", "pKi": "> 6.30"}
{"MOLECULE": "CN(CCCN)C(=O)c1cccc(-c2cnc3c(-c4ccccn4)c(N)nn3c2)n1", "ASSAY_SYSTEM": "Aurora-2 (Homo sapiens, UniProt O14965)", "pKi": "5.30 to 6.30"}
{"MOLECULE": "Nc1nn2cc(-c3ccncc3)cnc2c1-c1ncccc1OCc1ccccc1", "ASSAY_SYSTEM": "Aurora-2 (Homo sapiens, UniProt O14965)", "pKi": "5.30 to 6.30"}
{"MOLECULE": "Nc1nn2cc(-c3cccc(C(=O)N4CCCC4CO)n3)cnc2c1-c1ccccn1 (stereo not drawn)", "ASSAY_SYSTEM": "Aurora-2 (Homo sapiens, UniProt O14965)", "pKi": "5.30 to 6.30"}
{"MOLECULE": "Nc1nn2cc(-c3ccc(C(=O)N4CCC[C@H]4CN4CCCC4)cn3)cnc2c1-c1ccccn1", "ASSAY_SYSTEM": "Aurora-2 (Homo sapiens, UniProt O14965)", "pKi": "> 6.30"}
{"MOLECULE": "CC(C)N1CCN(c2ccc(-c3cnc4c(-c5ccccn5)c(N)nn4c3)cn2)CC1", "ASSAY_SYSTEM": "Aurora-2 (Homo sapiens, UniProt O14965)", "pKi": "5.30 to 6.30"}
{"MOLECULE": "Cc1cnc2c(-c3cc(NC(C)C)ncn3)c(N)nn2c1", "ASSAY_SYSTEM": "Aurora-2 (Homo sapiens, UniProt O14965)", "pKi": "5.30 to 6.30"}
{"MOLECULE": "COc1ccccc1Nc1cc(-c2c(N)nn3cc(C)cnc23)ncn1", "ASSAY_SYSTEM": "Aurora-2 (Homo sapiens, UniProt O14965)", "pKi": "5.30 to 6.30"}
{"MOLECULE": "CNc1cc(-c2c(N)nn3cc(-c4ccncc4)cnc23)ncn1", "ASSAY_SYSTEM": "Aurora-2 (Homo sapiens, UniProt O14965)", "pKi": "> 6.30"}
{"MOLECULE": "NC1NN2C=C(c3cccc(CN4CC[C@@H](N)C4)c3)C=NC2=C1c1ccccn1 (stereo partly drawn)", "ASSAY_SYSTEM": "Aurora-2 (Homo sapiens, UniProt O14965)", "pKi": "5.30 to 6.30"}
